# Study System: Pf-CD1 (Pyrococcus furiosus, UniProt Q8TZL6, I138R)
# Construct: C-terminal deletion (last 22 residues of Pf-Cpn removed); homo-hexadecamer (two octameric rings)
# Sequence (Q8TZL6 entry or part of it I138R): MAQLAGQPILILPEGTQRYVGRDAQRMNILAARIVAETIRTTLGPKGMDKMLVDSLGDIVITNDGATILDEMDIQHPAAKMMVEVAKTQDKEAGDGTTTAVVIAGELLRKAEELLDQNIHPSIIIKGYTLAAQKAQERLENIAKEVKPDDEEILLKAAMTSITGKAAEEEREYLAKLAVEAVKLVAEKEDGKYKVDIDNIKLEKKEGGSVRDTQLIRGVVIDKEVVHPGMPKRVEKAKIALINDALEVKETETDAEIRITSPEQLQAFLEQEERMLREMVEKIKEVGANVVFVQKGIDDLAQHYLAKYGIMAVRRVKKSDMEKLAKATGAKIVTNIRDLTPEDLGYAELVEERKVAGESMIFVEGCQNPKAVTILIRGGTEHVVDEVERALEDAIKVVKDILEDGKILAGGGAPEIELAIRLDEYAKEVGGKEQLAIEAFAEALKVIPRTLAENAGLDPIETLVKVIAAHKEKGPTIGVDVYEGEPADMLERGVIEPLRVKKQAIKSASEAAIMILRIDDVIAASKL
# Experiment Summary: isothermal titration calorimetry, one set of sites model
pKd: −log10 of the molar value.
Readout Name: pKd

{"columns": ["Smiles Str", "Numeric Result"],
 "data": [
  ["Nc1ncnc2c1ncn2[C@@H]1O[C@H](COP(=O)(O)OP(=O)(O)OP(=O)(O)O)[C@@H](O)[C@H]1O", 6.70]
]}

###

# Study System: Pf-CD1 (Pyrococcus furiosus, UniProt Q8TZL6, I138H)
# Construct: gene PF1974; C-terminal deletion (last 22 residues of Pf-Cpn removed); expressed in E. coli BL21(DE3) from pET33b; homo-hexadecamer (two octameric rings)
# Sequence (Q8TZL6 entry or part of it I138H): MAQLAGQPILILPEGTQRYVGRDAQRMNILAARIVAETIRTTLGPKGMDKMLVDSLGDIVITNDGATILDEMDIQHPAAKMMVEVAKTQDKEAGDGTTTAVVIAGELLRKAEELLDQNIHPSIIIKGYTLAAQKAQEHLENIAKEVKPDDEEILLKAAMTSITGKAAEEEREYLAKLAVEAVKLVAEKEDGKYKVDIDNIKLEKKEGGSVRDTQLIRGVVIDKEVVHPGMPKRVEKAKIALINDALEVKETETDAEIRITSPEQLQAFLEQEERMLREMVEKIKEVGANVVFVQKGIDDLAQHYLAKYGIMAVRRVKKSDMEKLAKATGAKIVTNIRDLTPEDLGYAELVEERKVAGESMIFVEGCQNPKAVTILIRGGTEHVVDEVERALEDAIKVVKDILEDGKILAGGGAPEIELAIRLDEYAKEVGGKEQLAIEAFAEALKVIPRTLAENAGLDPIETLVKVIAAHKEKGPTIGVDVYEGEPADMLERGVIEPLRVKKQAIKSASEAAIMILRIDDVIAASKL
# Experiment Summary: isothermal titration calorimetry, one set of sites model
# Type: binding
pKd: −log10 of the molar value.

{"columns": ["Smiles Str", "pKd"],
 "data": [
  ["Nc1ncnc2c1ncn2[C@@H]1O[C@H](COP(=O)(O)OP(=O)(O)OP(=O)(O)O)[C@@H](O)[C@H]1O", 6.52]
]}

Data origin: paper PMC5851525
